- Experimental target: T1, ZFP SBS#969 (synthetic)
- T1 chain: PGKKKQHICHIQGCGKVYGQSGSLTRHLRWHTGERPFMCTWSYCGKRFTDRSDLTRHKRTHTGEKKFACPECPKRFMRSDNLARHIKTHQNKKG
- Test description: EMSA
- Condition summary: tags: MBP fusion
Metric name: Kd (nM)
Response body: numeric value in nM, unit text excluded.

Exercise: Using the record for GAGGCCGCA (dsDNA) DNA 1: GAGGCCGCA DNA 2: TGCGGCCTC , report its Kd.
Key: 0.275
